Protocol: gradient 5% acetonitrile 3 min, to 50% in 2 min, to 85% in 15 min, held 3 min, 100 µL/min
Condition notes: column: Zorbax Extend-C18 2.1 x 50 mm; eluents: water / acetonitrile, 0.1% formic acid
Recorded measurements of RP-LC retention time, one per entry
State the answer as a number, implicitly in s.

Please review the following examples before continuing.
Compound | RP-LC retention time [s]
NC1=NCC2c3ccccc3Cc3ccccc3N12 (stereo not given) | 707
CCOc1nc2ccccc2nc1N1CCCC(C(=O)Nc2ccc(F)cc2F)C1 (stereo not given) | 1220
O=C(NC1CCCC1)C1c2ccccc2C(=O)N1Cc1ccc(F)cc1 (stereo not given) | 862
CC(=O)N1CCCSc2ccc(S(=O)(=O)N3CCN(c4cc(C)ccc4C)CC3)cc21 | 1130
CC(C)Nc1nc(N2CCN(C3CCCCC3)CC2)nc2c1cnn2C | 648

So what's the measured RP-LC retention time for this one? Cc1nn(C2CCS(=O)(=O)C2)c(C)c1N1CCN(S(=O)(=O)c2cccnc2)CC1 (stereo not given)
679

# iterate: "COc1cc(NC(=O)COc2nc(C)nc3ccccc23)cc(OC)c1OC"
649

Same lookup for "CCc1cc(=O)n(CC(=O)NC2CCCC2)c(N)n1" , please.
574

Follow-up entry: Cc1cc(C)cc(NC(=O)N2CCCC(Cn3cnc4cccnc43)C2)c1 (stereo not given)
680

Then "COCCc1noc(C2CN(S(=O)(=O)c3cccnc3)C2)n1" ?
669

###

This section presents molecules with their documented RP-LC retention time values.
Protocol: gradient 5% acetonitrile 3 min, to 50% in 2 min, to 85% in 15 min, held 3 min, 100 µL/min
Condition notes: column: Zorbax Extend-C18 2.1 x 50 mm; eluents: water / acetonitrile, 0.1% formic acid
Only the number, expressed in s, is required.

# count of solved cases: 4
Compound | Assay endpoint | Measure unit | Test result
O=C(NCC1(CO)CC1)c1c(F)cccc1Cl | RP-LC retention time | s | 609
CCOc1ccccc1-n1nnc(-c2nn3c(Cc4ccccc4)nnc3s2)c1C | RP-LC retention time | s | 857
CC(C)Cn1c(=O)c2ccccc2n(Cc2nc(-c3cccc(Cl)c3)no2)c1=O | RP-LC retention time | s | 1250
COc1ccc(-n2ccn(CC(=O)Nc3ccc(Br)cc3)c(=O)c2=O)cc1 | RP-LC retention time | s | 728

Proceed to the following item.
Form field: reported RP-LC retention time of "Cc1ccc2c(Nc3ccc(C#N)cc3)c(C(=O)N3CCCC3)cnc2n1"
576

###

Protocol: gradient 5% acetonitrile 3 min, to 50% in 2 min, to 85% in 15 min, held 3 min, 100 µL/min
Condition notes: column: Zorbax Extend-C18 2.1 x 50 mm; eluents: water / acetonitrile, 0.1% formic acid
Classification field: 1.0 = RP-LC retention time at or over 700 s; 0.0 = RP-LC retention time under 700 s.

Would you please look over these solved cases?
Compound | Group
Oc1cccc(-c2nc3cnc(Br)cn3c2Nc2ccc3c(c2)OCCO3)c1 | 1.0
CCC(=O)N1CCOc2ccc(N3CCOCC3)cc2C1 | 0.0
Cc1noc(C)c1S(=O)(=O)N1CCc2c(c(-c3nnc(-c4ccccc4)o3)nn2C)C1 | 1.0

Assess whether reported RP-LC retention time for COc1ccc(S(=O)(=O)N2CC3CN(C(=O)C4CCOC4)CC(C2)O3)cc1 (centres undefined) sits at 700 s or higher.
0.0

Okay, and "COc1ccc(S(=O)(=O)N2CCCN(c3ccc(=O)n(-c4ccccc4)n3)CC2)cc1" ?
1.0

Please do the same for COc1ccc(CNC(=O)NC2CCN(c3ccc(F)c(C)c3)C2=O)cc1 (centres undefined) as well.
1.0

Also "O=C(CSc1nnc2c3sc(N4CCCC4)nc3ncn12)Nc1ccc2c(c1)OCCO2" ?
1.0

Let us now turn to "CCn1cc(CN2C[C@@H](COC)[C@H](c3ccccn3)C2)c(C)n1"
0.0

Repeat with "CCCC(=O)Nc1nc2ccc(CCC(=O)Nc3cccc(C(=O)OCC)c3)cc2s1"
1.0

What do you get for "O=C(CCC1CCN(c2cc(NC3CC3)ncn2)CC1)NCc1cc(F)cc(F)c1" ?
0.0

Follow-up item: "CCc1cccc(NS(=O)(=O)c2cc3n(c2)CCN(C)C3=O)c1"
1.0

Try this compound too: "Cc1noc(-c2nn(C)c3c2CN(C(=O)COc2ccc(Cl)cc2)CC3)n1"
1.0

Another: "Cc1cccc(/C=C/c2ccccc2)n1"
0.0

Measured values drawn from the METLIN SMRT retention time set (Domingo-Almenara et al. 2019) for this set.
